Tested on: HeLa
measurementProtocol: Cellular uptake in human HeLa cells expressing CD4 at 100 uM after 24 hrs by confocal laser scanning microscopy analysis
Type: ADME, cell-based
reportedMetric: Drug uptake

Simply: `COc1ccc(-c2c3n(c4c(=O)oc5cc(OS(=O)(=O)[O-])c(OC)cc5c24)CCc2cc(OC)c(OC)cc2-3)cc1O.[Na+]` , HeLa, Drug uptake = Not Active

Simply: `COc1cc2c(cc1O)oc(=O)c1c2c(-c2ccc(OC)c(OS(=O)(=O)[O-])c2)c2c3cc(OC)c(OC)cc3ccn21.[Na+]` , HeLa, Drug uptake = Not Active

Simply: `COc1ccc(-c2c3c4cc(OC)c(OS(=O)(=O)[O-])cc4oc(=O)c3n3ccc4cc(OS(=O)(=O)[O-])c(OC)cc4c23)cc1OS(=O)(=O)[O-].[Na+].[Na+].[Na+]` , HeLa, Drug uptake = Not Active

* * *

Test system: HeLa
measurementProtocol: Cellular uptake in human HeLa cells expressing CD4 at 100 uM after 24 hrs by confocal laser scanning microscopy analysis
Format: ADME, cell-based
reportedMetric: Drug uptake

For this compound ( `COc1ccc(-c2c3c4cc(OC)c(OS(=O)(=O)[O-])cc4oc(=O)c3n3ccc4cc(OC)c(OC)cc4c23)cc1O.[Na+]` ), measured Drug uptake is Not Active

For this compound ( `COc1cc2ccn3c(c(-c4ccc(OC)c(OS(=O)(=O)[O-])c4)c4c5cc(OC)c(OS(=O)(=O)[O-])cc5oc(=O)c43)c2cc1OC.[Na+].[Na+]` ), measured Drug uptake is Not Active

* * *

System: Human immunodeficiency virus 1
measurementProtocol: Antiviral activity against LacZ-containing HIV1 in COS7 cells expressing HXB2 Env, R8.91, and pTY-EFnLacZ assessed as reduction of viral vector infection into human HeLa cells expressing CD4 after 2 days using 5-bromo-4-chloro-3-indolyl-beta-D-galactopyranoside staining
Format: functional, organism-based
conditionLabel: Human immunodeficiency virus 1, HeLa, 48 h
reportedMetric: IC50 (µM)
Give the quantity in µM, number only.

For this molecule ( `COc1cc2ccn3c(c(-c4ccc(OC)c(OS(=O)(=O)[O-])c4)c4c5cc(OC)c(OS(=O)(=O)[O-])cc5oc(=O)c43)c2cc1OC.[Na+].[Na+]` ), measured IC50 is 15.1

For this molecule ( `COc1ccc(-c2c3c4cc(OC)c(OS(=O)(=O)[O-])cc4oc(=O)c3n3ccc4cc(OC)c(OC)cc4c23)cc1O.[Na+]` ), measured IC50 is 13

For this molecule ( `COc1ccc(-c2c3n(c4c(=O)oc5cc(OS(=O)(=O)[O-])c(OC)cc5c24)CCc2cc(OC)c(OC)cc2-3)cc1O.[Na+]` ), measured IC50 is 15.3

For this molecule ( `COc1ccc(-c2c3c4cc(OC)c(OS(=O)(=O)[O-])cc4oc(=O)c3n3ccc4cc(OS(=O)(=O)[O-])c(OC)cc4c23)cc1OS(=O)(=O)[O-].[Na+].[Na+].[Na+]` ), measured IC50 is 20.7

For this molecule ( `COc1cc2c(cc1O)oc(=O)c1c2c(-c2ccc(OC)c(OS(=O)(=O)[O-])c2)c2c3cc(OC)c(OC)cc3ccn21.[Na+]` ), measured IC50 is 14.4

Value source: ChEMBL document CHEMBL1926605
